Kindly state abundance fitness for each of the entries shown.
B1: Tudor domain-containing protein 3, residues 554 to 611; numbered along this chain, Q9H7E2 (parent)
chain: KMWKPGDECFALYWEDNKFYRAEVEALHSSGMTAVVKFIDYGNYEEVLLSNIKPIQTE

Variants of: B1
Experiment: abundance fitness (aPCA) (normalised: wild type 0, dead -1); higher = more abundant; growth selection in yeast, the domain comes from the species named
Conditions: Homo sapiens
Give the value as a plain number.

Q: Query (variant): D7S ; field requested: abundance fitness
Ans: -0.608

Q: I would be grateful if you could share the reported abundance fitness for V47I .
Ans: -0.134

Q: So what's the measured abundance fitness for this one? F38Q
Ans: -0.946

Q: I am curious: what abundance fitness value has been reported for F19Y ?
Ans: -0.123

Q: Recorded abundance fitness of E8H , please.
Ans: 0.007

Q: Recorded abundance fitness for Q56M , please?
Ans: -0.037

Q: Returns the measured abundance fitness for the input variant. Input: V47E
Ans: -0.925

Q: Given the entry L48R , report its measured abundance fitness.
Ans: -0.197

Q: For the variant shown here, E45V , give the reported abundance fitness.
Ans: -0.392

Q: // returns reported abundance fitness for input N17E
Ans: -0.021

Q: Returns the measured abundance fitness for the input variant. Input: T57V
Ans: 0.04

Q: GET /values?readout=abundance fitness&item= W14H
Ans: 0.043

Q: Can you look up the measured abundance fitness of A22K for me?
Ans: -1.03

Q: What value of abundance fitness has been recorded for this entry: L27W
Ans: -0.76

Q: Given the entry I52K , report its measured abundance fitness.
Ans: -0.974

Q: Which abundance fitness value belongs to Y44I ?
Ans: -0.015

Q: Would you kindly share the measured abundance fitness for N17Q ?
Ans: -0.1

Q: Can you look up the measured abundance fitness of W3M for me?
Ans: -0.079

Q: Return reported abundance fitness; argument: S50Q
Ans: -0.115

Q: Quick one: abundance fitness of I55G ?
Ans: -0.351

Q: So what does the record say about abundance fitness for M2V ?
Ans: -0.164

Q: Which abundance fitness value is on record for Y13W ?
Ans: -0.06

Q: Fill in: abundance fitness of A34P is ___
Ans: -1.04

Q: What does the record list as abundance fitness for V47W ?
Ans: -0.846

Q: Fill blank: measured abundance fitness of the variant C9K is ____.
Ans: -0.915

Q: For the variant shown here, M32G , give the reported abundance fitness.
Ans: -0.031

Q: Fill in: abundance fitness of G42L is ___
Ans: -0.492

Q: Look up abundance fitness for this variant: Y13V
Ans: -0.897

Q: abundance fitness for W14I ?
Ans: -0.131

Q: I am curious: what abundance fitness value has been reported for I39Q ?
Ans: -0.082

Q: Consider the variant C9L and give its measured abundance fitness.
Ans: -0.913

Q: Can you look up the measured abundance fitness of S29R for me?
Ans: -0.133

Q: I'd like to know its abundance fitness. The variant in question is K37Q
Ans: -0.359

Q: // abundance fitness lookup, key: V36T
Ans: -0.777

Q: // returns reported abundance fitness for input K4S
Ans: -0.149

Q: What measured abundance fitness goes with C9R ?
Ans: -0.819

Q: For A26N , what is its reported abundance fitness?
Ans: -0.079

Q: Consider the variant G6H and give its measured abundance fitness.
Ans: -0.502

Q: Value lookup for abundance fitness; key = M2E
Ans: -0.19

Q: # lookup: abundance fitness of P5N
Ans: 0.03

Q: State the recorded abundance fitness for this entry: N17S
Ans: -0.117

Q: Look up abundance fitness: E23L
Ans: -0.225

Q: Look up abundance fitness: K53L
Ans: -0.217

Q: Could you tell me which abundance fitness is on file for D16F ?
Ans: -0.76

Q: For the variant Y44C , what abundance fitness is on record?
Ans: 0.097

Q: Could you share which abundance fitness value was measured for S29M ?
Ans: -0.009
